For each of the compounds below, state its GI50.
System: MDA-MB-435
Experiment: NCI tumour cell line growth inhibition, 48 h
Activity calls are given as the source filed them. No stated cut-off is given here; in the data, active = GI50 up to about 1.1 µM and inactive = higher.

Use the examples below as a reference point.
[
  {
    "compound": "CN(C)CCCNC(=O)c1cc(NC(=O)c2cc(NC(=O)c3cc(NC(=O)CCCn4ccc(CO)c4CO)cn3C)cn2C)cn1C",
    "GI50": "11.1 µM (inactive)"
  },
  {
    "compound": "CCCCCC(O)C1C(=O)OC(C)C(O)/C=C/C=C/C=C/C=C/C=C(\\C)C(O)C(O)C(O)CC(O)CC(O)CC(O)CC(O)CC1O (centres undefined)",
    "GI50": "> 100 µM (inactive)"
  },
  {
    "compound": "COc1ccc(-c2nc3cc(C(F)(F)F)ccc3n2CC2CCCN3CCCCC23)cc1 (centres undefined)",
    "GI50": "15.8 µM (inactive)"
  },
  {
    "compound": "COc1cc(OC)c(/C=C\\c2cc(/C=C/c3c(OC)cc(OC)cc3OC)c3ccccc3[n+]2C)c(OC)c1",
    "GI50": "2.48 µM (inactive)"
  },
  {
    "compound": "O=C(NC(Cc1c[nH]c2ccccc12)C(=O)O)/C(=C/c1ccccc1O)NC(=O)c1ccccc1 (centres undefined)",
    "GI50": "18.9 µM (inactive)"
  },
  {
    "compound": "Nn1c(CCCCCCCCc2nnc(COc3ccccc3)n2N)nnc1COc1ccccc1",
    "GI50": "> 100 µM (inactive)"
  }
]

Below is a list of compounds. For each, state its recorded GI50.
1. O=C1C(c2c(O)[nH]c3ccc(Cl)cc23)=Nc2ccccc21
2. O=c1c2cc(Br)ccc2ncn1COCc1ccccc1

Given back:
["4.3 µM (inactive)", "> 100 µM (inactive)"]

Asked: Return reported GI50; argument: COc1cc(C23OCC(Cc4cc5c(cc42)OCO5)C3CO)cc(OC)c1OC (centres undefined)
Given back: 0.119 µM (active)
